System: IL-6
Assay: IL-6 inhibition in LPS-stimulated human peripheral blood mononuclear cells (HTRF)
Format: cell-based
Conditions: Homo sapiens, PBMC, read-out: percent value in parentheses below EC50 >10
Parameter threshold = 10%. Response is satisfied when inhibition at 10 µM meets or exceeds it, else not satisfied.

Compound: Cc1nnc(-c2ccc3cnc(NC(=O)N4CCC(N)CC4)cc3c2)s1 [Compound 150]
Group Label: not satisfied

Compound: Cc1nnc(-c2ccc3cnc(NC(=O)N4[C@@H]5CC[C@H]4C[C@H](N)C5)cc3c2)s1 [Compound 151]
Group Label: satisfied

Compound: Cc1nnc(-c2ccc3cnc(NC(=O)N4CC[C@H](NC(C)C)[C@@H](F)C4)cc3c2)s1 [Compound 35]
Group Label: not satisfied

Compound: Cn1cc(-c2ccc3cnc(NC(=O)c4ccnc(N5CC[N+](C)([O-])CC5)c4)cc3c2)nn1 [Compound 224]
Group Label: satisfied

Compound: Cn1cc(-c2ccc3cnc(NC(=O)CN4CCOCC4)cc3c2)nn1 [Compound 11]
Group Label: satisfied

====

Tested on: IL-6
Assay: IL-6 inhibition in LPS-stimulated human peripheral blood mononuclear cells (HTRF)
Assay type: cell-based
Conditions: Homo sapiens, PBMC, read-out: percent value in parentheses below EC50 >10

Item Smiles: Cc1nnc(-c2ccc3cnc(NC(=O)N4CCN(C)[C@H](C)C4)cc3c2)s1
inhibition at 10 µM, %: 6.9
//
Item Smiles: CN1CCC(N(C)C(=O)Nc2cc3cc(-c4cnn(C)c4)cc(F)c3cn2)CC1
inhibition at 10 µM, %: 36.6
//
Item Smiles: Cc1nnc(-c2ccc3cnc(NC(=O)N4CC[C@H](N(C)C)[C@@H](F)C4)cc3c2)s1
inhibition at 10 µM, %: 7
//
Item Smiles: C[C@@H]1CN(C(=O)Nc2cc3cc(-c4cnn(C)c4)ccc3cn2)CCN1C
inhibition at 10 µM, %: 29.6
//
Item Smiles: [2H]c1c([2H])c([2H])c(C(=O)Nc2cc3cc(-c4cnc(C)n4C)ccc3cn2)c(F)c1[2H]
inhibition at 10 µM, %: 0
//
Item Smiles: Cc1ncc(-c2ccc3cnc(NC(=O)N4CCOCC4)cc3c2)n1C
inhibition at 10 µM, %: 17.6
//
Item Smiles: [2H]C([2H])([2H])C(N[C@H]1CCN(C(=O)Nc2cc3cc(-c4nnc(C)s4)ccc3cn2)C[C@@H]1F)C([2H])([2H])[2H]
inhibition at 10 µM, %: 6.6

====

Overview of reported EC50 across a group of compounds:
Biological target: DYRK1A kinase (Homo sapiens (Human))
Test: DYRK1A kinase assay (Ser/Thr 18 peptide Z-lyte, FRET)
Details: DYRK1A kinase; method text calls the value IC50

Item Smiles: Cc1nnc(-c2ccc3cnc(NC(=O)C4CCN(CC(C)(F)F)CC4)cc3c2)s1
EC50 (nM): 4
--
Item Smiles: Cc1ncc(-c2ccc3cnc(NC(=O)[C@H]4CC[C@H](NCC(F)F)CC4)cc3c2)o1
EC50 (nM): 8
--
Item Smiles: Cc1ncc(-c2ccc3cnc(NC(=O)N4CC[C@H](N)[C@@H](F)C4)cc3c2)o1
EC50 (nM): 14
--
Item Smiles: Cc1nnc(-c2ccc3cnc(NC(=O)C4CCNCC4)cc3c2)s1
EC50 (nM): 7
--
Item Smiles: COC1CCN(CC(=O)Nc2cc3cc(-c4cn(C)nn4)ccc3cn2)CC1
EC50 (nM): 7
--
Item Smiles: Cn1cc(-c2ccc3cnc(NC(=O)CN4CCOCC4)cc3c2)nn1
EC50 (nM): 10
--
Item Smiles: Cc1nnc(-c2ccc3cnc(NC(=O)[C@H]4CC[C@H](N5CCOCC5)CC4)cc3c2)s1
EC50 (nM): 4
--
Item Smiles: Cc1ncc(-c2cc(F)c3cnc(NC(=O)[C@H]4CC[C@H](N5CCOCC5)CC4)cc3c2)o1
EC50 (nM): 110
--
Item Smiles: Cc1nnc(-c2ccc3cnc(NC(=O)N4CC[C@H](N(C)C)[C@@H](F)C4)cc3c2)s1
EC50 (nM): 15
--
Item Smiles: Cc1nnc(-c2ccc3cnc(NC(=O)N4CCC(N(C)C)CC4)cc3c2)s1
EC50 (nM): 24
--
Item Smiles: Cc1ncc(-c2ccc3cnc(NC(=O)[C@H]4CC[C@H](N(C)CC(F)F)CC4)cc3c2)o1
EC50 (nM): 5
--
Item Smiles: COCCN[C@H]1CC[C@H](C(=O)Nc2cc3cc(-c4nnc(C)s4)ccc3cn2)CC1
EC50 (nM): 4
--
Item Smiles: Cc1ncc(-c2cc(F)c3cnc(NC(=O)N(C)C4CCN(C)CC4)cc3c2)o1
EC50 (nM): 1000
--
Item Smiles: Cn1cc(-c2ccc3cnc(NC(=O)N4CCOCC4)cc3c2)nn1
EC50 (nM): 7
--
Item Smiles: Cc1nnc(-c2ccc3cnc(NC(=O)N4CCN(C)[C@H](C)C4)cc3c2)s1
EC50 (nM): 10
--
Item Smiles: COCCN[C@H]1CC[C@H](C(=O)Nc2cc3cc(-c4cnc(C)o4)ccc3cn2)CC1
EC50 (nM): 17
--
Item Smiles: Cn1cc(-c2cc(F)c3cnc(NC(=O)[C@H]4CC[C@H](N5CCOCC5)CC4)cc3c2)nn1
EC50 (nM): 4

====

Molecular target: GSK3β kinase (Homo sapiens (Human), UniProt P49841)
Sequence (P49841 whole entry): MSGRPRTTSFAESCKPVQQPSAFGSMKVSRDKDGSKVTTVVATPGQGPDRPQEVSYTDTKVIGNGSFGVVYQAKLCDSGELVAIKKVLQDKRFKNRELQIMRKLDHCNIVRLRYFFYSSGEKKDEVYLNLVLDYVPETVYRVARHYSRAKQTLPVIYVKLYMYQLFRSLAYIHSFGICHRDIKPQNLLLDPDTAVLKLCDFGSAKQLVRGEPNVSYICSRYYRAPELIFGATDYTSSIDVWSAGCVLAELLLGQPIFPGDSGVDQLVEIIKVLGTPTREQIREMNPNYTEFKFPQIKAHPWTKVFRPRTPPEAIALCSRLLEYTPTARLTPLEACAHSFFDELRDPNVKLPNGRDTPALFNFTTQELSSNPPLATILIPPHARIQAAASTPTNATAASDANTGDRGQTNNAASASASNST
Test: GSK3β kinase assay (Ser/Thr 09 peptide Z-lyte, FRET);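 also: Coumarin/fluorescein emission ratio converted to percent phosphorylation against unphosphorylated (0%) and phosphorylated (100%) controls, 1 h compound incubation at room temperature, 11-point threefold dilutions from 10 µM, run in duplicate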
Settings: method text calls the value IC50
Measured EC50 of individual entries
Endpoint Name: EC50 (nM)

Item Smiles: Cc1nnc(-c2ccc3cnc(NC(=O)C4(F)CCNCC4)cc3c2)s1
Unit Tag: nM
Obs Value: 313
//
Item Smiles: Cc1nnc(-c2ccc3cnc(NC(=O)N4CC[C@H](N)[C@@H](F)C4)cc3c2)s1
Unit Tag: nM
Obs Value: 23
//
Item Smiles: CC(C)N1CCN(C(=O)Nc2cc3cc(-c4cnn(C)c4)ccc3cn2)CC1
Unit Tag: nM
Obs Value: 2840
//
Item Smiles: [2H]C([2H])(C(=O)Nc1cc2cc(-c3cnc(C)n3C)ccc2cn1)c1ccc(F)cc1
Unit Tag: nM
Obs Value: 66
//
Item Smiles: [2H]c1c([2H])c([2H])c(C(=O)Nc2cc3cc(-c4cncn4C)ccc3cn2)c(Cl)c1[2H]
Unit Tag: nM
Obs Value: 1510
//
Item Smiles: Cn1cc(-c2cc(F)c3cnc(NC(=O)[C@H]4CC[C@@H](N5CCOCC5)CC4)cc3c2)cn1
Unit Tag: nM
Obs Value: 20
//
Item Smiles: [2H]c1c([2H])c(C(=O)Nc2cc3cc(-c4cnc(C)n4C)ccc3cn2)c([2H])c([2H])c1OC([2H])([2H])[2H]
Unit Tag: nM
Obs Value: 3740
//
Item Smiles: Cc1ncc(-c2ccc3cnc(NC(=O)N4CCn5ccnc5C4)cc3c2)o1
Unit Tag: nM
Obs Value: 24
//
Item Smiles: Cc1nnc(-c2ccc3cnc(NC(=O)N4CC5CCC(C4)N5C)cc3c2)s1
Unit Tag: nM
Obs Value: 314
//
Item Smiles: [2H]c1c(NC(=O)C2CCNCC2)ncc2ccc(-c3cnn(C)c3)cc12
Unit Tag: nM
Obs Value: 115
//
Item Smiles: Cc1ncc(-c2ccc3cnc(NC(=O)[C@H]4CC[C@H](NC(CF)CF)CC4)cc3c2)o1
Unit Tag: nM
Obs Value: 217
//
Item Smiles: Cc1nnc(-c2ccc3cnc(NC(=O)N4CC[C@@H](NC(C)C)[C@H](F)C4)cc3c2)s1
Unit Tag: nM
Obs Value: 142
//
Item Smiles: Cn1cc(-c2cc(F)c3cnc(NC(=O)[C@H]4CC[C@H](N(C)C)CC4)cc3c2)cn1
Unit Tag: nM
Obs Value: 107

====

Biological target: UniProt:P49841
Test: GSK3β kinase assay (Ser/Thr 09 peptide Z-lyte, FRET)
Conditions: method text calls the value IC50
pEC50: −log10 of the molar value.
The reader will find reported pEC50 values listed item by item below.

Item Smiles: [2H]C1([2H])OC([2H])([2H])C([2H])([2H])N(CC(=O)Nc2cc3cc(-c4cnc(C)o4)ccc3cn2)C1([2H])[2H]
Bound Type: =
pEC50: 6.92
--
Item Smiles: Cc1nnc(-c2ccc3cnc(NC(=O)N4CCC(N)CC4)cc3c2)s1
Bound Type: =
pEC50: 7.64
--
Item Smiles: Cc1nnc(-c2ccc3cnc(NC(=O)N4CCC(N(C)C)CC4)cc3c2)s1
Bound Type: =
pEC50: 6.93
--
Item Smiles: Cc1nnc(-c2ccc3cnc(NC(=O)[C@H]4CC[C@H](NCCF)CC4)cc3c2)s1
Bound Type: =
pEC50: 7.85
--
Item Smiles: [2H]c1c(NC(=O)C2CCN(C)CC2)ncc2ccc(-c3nnc(C)s3)cc12
Bound Type: =
pEC50: 7.72
--
Item Smiles: Cn1cc(-c2ccc3cnc(NC(=O)N4CCOCC4)cc3c2)nn1
Bound Type: =
pEC50: 7.14
--
Item Smiles: COCCN[C@H]1CC[C@H](C(=O)Nc2cc3cc(-c4cnn(C)c4)ccc3cn2)CC1
Bound Type: =
pEC50: 6.71
--
Item Smiles: Cn1cc(-c2ccc3cnc(NC(=O)c4cc[n+]([O-])c(N5CC[N+](C)([O-])CC5)c4)cc3c2)nn1
Bound Type: =
pEC50: 6.39
--
Item Smiles: [2H]/C(C(=O)Nc1cc2cc(-c3cncn3C)ccc2cn1)=C(/[2H])c1c([2H])c([2H])c([2H])c([2H])c1[2H]
Bound Type: =
pEC50: 6.56
--
Item Smiles: [2H]C1([2H])N(c2cc(C(=O)Nc3cc4cc(-c5cnc(C)n5C)ccc4cn3)ccn2)C([2H])([2H])C([2H])([2H])C([2H])([2H])C1([2H])[2H]
Bound Type: <
pEC50: 5.00
--
Item Smiles: Cc1nnc(-c2ccc3cnc(NC(=O)N4CCn5ccnc5C4)cc3c2)s1
Bound Type: =
pEC50: 8.30
--
Item Smiles: Cn1cc(-c2cc(F)c3cnc(NC(=O)[C@H]4CC[C@H](N5CCOCC5)CC4)cc3c2)nn1
Bound Type: =
pEC50: 8.05
--
Item Smiles: [2H]c1c([2H])c(C(=O)Nc2cc3cc(-c4cnc(C)n4C)ccc3cn2)c([2H])c([2H])c1OC
Bound Type: =
pEC50: 5.20
